# measured-target: dopamine-D4 receptor (Homo sapiens, UniProt P21917)
# Construct: expressed in transfected cells; host or cells: CHO (Chinese Hamster Ovary) cells, D4-CHO; crude membranes
# Sequence (P21917 1-419): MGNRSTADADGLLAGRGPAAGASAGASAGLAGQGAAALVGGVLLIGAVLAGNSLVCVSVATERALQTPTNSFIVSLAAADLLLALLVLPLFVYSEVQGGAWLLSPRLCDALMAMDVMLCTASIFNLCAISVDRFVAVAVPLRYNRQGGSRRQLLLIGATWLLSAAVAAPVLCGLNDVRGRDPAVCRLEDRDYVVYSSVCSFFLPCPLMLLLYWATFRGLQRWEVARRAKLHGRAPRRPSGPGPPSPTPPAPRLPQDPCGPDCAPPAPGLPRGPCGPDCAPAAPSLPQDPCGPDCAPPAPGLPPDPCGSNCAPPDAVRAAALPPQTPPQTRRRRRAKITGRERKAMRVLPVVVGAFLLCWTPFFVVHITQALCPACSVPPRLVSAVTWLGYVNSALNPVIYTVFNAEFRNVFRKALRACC
# procedure-text: Binding at the D4 receptor, [3H]spiperone displacement, membranes of D4-CHO cells
# test-settings: Table 2, 200 pM [3H]spiperone, room temperature, 90 minutes
measurement-kind: Ki (nM)

INSERT INTO assay_data (molecule, value_measured) VALUES
  ('Cc1cccc(OCC(O)CN2CCN(c3ccccc3)CC2)c1 (stereo not drawn) [Compound 23]', 9.6),
  ('CC(=O)Nc1ccccc1OCC(O)CN1CCN(c2ccccc2[N+](=O)[O-])CC1 (stereo not drawn) [Compound 29]', 8.7),
  ('COc1ccccc1N1CCN(CC(O)COc2ccccc2NS(C)(=O)=O)CC1 (stereo not drawn) [Compound 26]', 3.2),
  ('CCC(=O)Nc1ccccc1OCC(O)CN1CCN(c2ccccc2)CC1 (stereo not drawn) [Compound 24]', 29),
  ('COc1cc(O)ccc1N1CCN(CC(O)COc2ccccc2NC(C)=O)CC1 (stereo not drawn) [Compound 25]', 10.2),
  ('COc1ccccc1N1CCN(CC(O)COc2ccc([N+](=O)[O-])cc2NC(C)=O)CC1 (stereo not drawn) [Compound 27]', 15);

----------
# System: D2 receptor
# procedure-text: Binding at the D2 receptor, [3H]spiperone displacement, membranes of D2-CHO cells (selectivity vs. D4)
# test-settings: ratio of the Ki values at the D2 receptor and at the D4 receptor
Entries whose Sel. vs. D2 is below 300 take MET; entries at or above 300 take NOT MET.

INSERT INTO measurements (molecule, assigned_class) VALUES
  ('CC(=O)Nc1ccccc1OCC(O)CN1CCN(c2ccccc2[N+](=O)[O-])CC1 (stereo not drawn)', 'NOT MET'),
  ('COc1ccccc1N1CCN(CC(O)COc2ccc([N+](=O)[O-])cc2NC(C)=O)CC1 (stereo not drawn)', 'MET'),
  ('CCC(=O)Nc1ccccc1OCC(O)CN1CCN(c2ccccc2)CC1 (stereo not drawn)', 'MET'),
  ('COc1ccccc1N1CCN(CC(O)COc2ccccc2NS(C)(=O)=O)CC1 (stereo not drawn)', 'MET'),
  ('COc1cc(O)ccc1N1CCN(CC(O)COc2ccccc2NC(C)=O)CC1 (stereo not drawn)', 'NOT MET');
